Experiment: Primary qHTS for inhibitors of nuclear receptor binding SET domain protein 2 (NSD2) in an RCH-ACV wild type WT cells (2C) (AID 1645877); note: nearly all actives have a fitted effect of over 70% in size
Conditions: RCH-ACV (leukaemia line) NSD2 WT (2C) viability, CellTiter-Glo, 72 h; series mostly up to 44.9 µM
Records with an inconclusive call do not appear. Calls of active or inactive are those of the source. Calls come from the whole dose curve; as a rule, active = well fitted inhibition curve with a large enough effect; inconclusive = small, poorly fitted or top-dose-only effect; inactive = no such curve, though single readings can be large or run the other way.
Reply using exactly one outcome from Y for active, N for inactive

COc1cccc2c1C(=O)c1c(O)c3c(c(O)c1C2=O)C[C@@](O)(C(=O)CO)C[C@@H]3O[C@H]1C[C@H](N)[C@H](O[C@@H]2CCCCO2)[C@H](C)O1 :: Y
O=C(Nc1ccc2[nH]ncc2c1)C1CCC1 :: N
O=C(O)[C@H](CC(=O)N1C[C@H]2CCCC[C@H]2C1)Cc1ccccc1 :: N

For this compound, state the assay outcome: CCCCCCCCCCCC(=O)[O][Sn]([CH2]CCC)([CH2]CCC)[O]C(=O)CCCCCCCCCCC
N

For this compound, state the assay outcome: CCOC(=O)N1CCN(/[N+]([O-])=N/Oc2ccc([N+](=O)[O-])cc2[N+](=O)[O-])CC1
Y

For this compound, state the assay outcome: CO[C@@]1(NC(=O)Cc2cccs2)C(=O)N2C(C(=O)O)=C(COC(N)=O)CS[C@@H]21
N

For this compound, state the assay outcome: Nc1ncnc2c1c(I)cn2[C@@H]1C[C@H](N)[C@@H](O)[C@H]1O
Y

For this compound, state the assay outcome: COC(=O)c1nc(Cl)c(Cl)nc1N
Y

For this compound, state the assay outcome: COc1ccnc2c1CCCCC2S(=O)c1nc2ccccc2[nH]1 (configuration not stated)
N

For this compound, state the assay outcome: O=C(/C=C/c1ccc(O)cc1)c1ccc(O)cc1O
Y

For this compound, state the assay outcome: Cc1onc(-c2c(F)cccc2Cl)c1C(=O)N[C@@H]1C(=O)N2[C@@H]1SC(C)(C)[C@@H]2C(=O)O
N

For this compound, state the assay outcome: O=C(O)c1ccccc1Nc1cccc(C(F)(F)F)c1
N

====

Experiment: Cell Viability - N2a (AID 540);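 note: cells exposed to compound for 40 h at 37 °C; nearly all actives have a fitted effect of over 45% in size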
Conditions: N2a mouse neuroblastoma cell viability
Results filed as inconclusive are left out. Calls of active or inactive are those of the source. Calls come from the whole dose curve; as a rule, active = well fitted cell-killing curve with a large enough effect; inconclusive = small, poorly fitted or top-dose-only effect; inactive = flat fitted curve, though single readings scatter.
Reply using exactly one outcome from active, inactive

For this compound, state the assay outcome: O=c1cc(-c2ccccc2)oc2ccccc12
inactive

For this compound, state the assay outcome: CN(C)CCC(c1ccc(Cl)cc1)c1ccccn1 (configuration not stated)
inactive

For this compound, state the assay outcome: c1cnc2c(c1)ccc1cccnc12
active

For this compound, state the assay outcome: S=c1[nH]c2ccccc2s1
inactive

For this compound, state the assay outcome: NCCO
inactive

For this compound, state the assay outcome: COc1cc(CNC(=O)CCCC/C=C/C(C)C)ccc1O
inactive

For this compound, state the assay outcome: C#C[C@]1(O)CC[C@H]2[C@@H]3CCc4cc(O)ccc4[C@H]3CC[C@@]21C
inactive

====

Target: Cytochrome P450 2D6 (Homo sapiens)
Test: Cytochrome P450 family 2 subfamily D member 6 (CYP2D6) small molecule antagonists: luciferase biochemical (cell-free) qHTS assay (AID 1645840); note: nearly all actives have a fitted effect of over 55% in size
Conditions: P450-Glo CYP2D6 enzyme, luciferin luminescence, 1 h; series mostly up to 57.4 µM
Results filed as inconclusive are left out. Calls of active or inactive are those of the source. The call rests on the fitted dose curve; in most records, active means well fitted inhibition curve with a large enough effect in the repeat runs; inconclusive means weak or mixed curves; inactive means flat fitted curve, though single readings scatter.
Reply using exactly one outcome from active, inactive

Reference set (3 entries):
O=Cc1ccc(O)c(O)c1O :: inactive
CC(C)(C)c1nnc(NS(=O)(=O)c2ccc(N)cc2)s1 :: inactive
c1ccc2sc(SSc3nc4ccccc4s3)nc2c1 :: inactive

For this molecule, state the assay outcome: COC(=O)C1=C(C)NC(C)=C(C(=O)OC)C1c1cccc(NC(=O)NCCCN2CCC(c3cccc(OC)c3)CC2)c1
active

====

Molecular target: Parathyroid hormone/parathyroid hormone-related peptide receptor (Homo sapiens) (UniProt Q03431)
Sequence (Q03431 whole entry, looked up): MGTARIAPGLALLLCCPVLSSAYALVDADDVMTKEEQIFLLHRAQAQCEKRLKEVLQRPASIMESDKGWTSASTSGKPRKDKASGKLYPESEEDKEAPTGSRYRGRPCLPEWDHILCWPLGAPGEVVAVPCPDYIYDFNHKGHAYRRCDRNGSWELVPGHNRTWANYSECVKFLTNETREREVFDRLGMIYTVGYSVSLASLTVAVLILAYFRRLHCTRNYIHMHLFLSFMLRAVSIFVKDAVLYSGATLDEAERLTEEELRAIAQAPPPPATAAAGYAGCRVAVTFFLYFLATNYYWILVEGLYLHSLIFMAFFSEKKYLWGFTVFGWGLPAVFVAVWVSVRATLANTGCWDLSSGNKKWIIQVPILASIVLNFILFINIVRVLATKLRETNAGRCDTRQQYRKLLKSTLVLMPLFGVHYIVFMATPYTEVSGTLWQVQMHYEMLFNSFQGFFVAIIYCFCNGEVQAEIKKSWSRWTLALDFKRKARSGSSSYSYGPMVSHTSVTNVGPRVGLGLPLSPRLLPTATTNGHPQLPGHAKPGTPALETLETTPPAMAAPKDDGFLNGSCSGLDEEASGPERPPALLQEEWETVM
Experiment: qHTS for PTHR1 Agonists: Optimization Screen against the NCGC LOPAC library (AID 1347079);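 note: GloSensor cAMP luminescence in HEK-293 GP2 cells expressing human PTHR1 with IBMX; 0% is about no effect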
Conditions: HEK293 GP2 PTHR1 GloSensor cAMP luminescence, 1 h; series mostly up to 57.1 µM
From the text: The goal of the proposed studies is to discover new compounds that act as potent agonists on the parathyroid hormone receptor type-1 (PTHR1). […] We performed an optimization assay of the quantitative high-throughput screening (qHTS) for the parathyroid hormone receptor type-1 (PTHR1) against the NCGC LOPAC library collection of […] compounds using a unique HEK-293-derived cell line (GP2) that expresses the PTHR1 and a GloSensor cAMP reporter construct. […]
The source made the active and inactive calls. Calls follow the shape of the dose curve; as a rule, active = well fitted activation curve with a large enough effect; inconclusive = small, poorly fitted or top-dose-only effect; inactive = no such curve, though single readings can be large or run the other way.
REPORTED PROPERTY: outcome

// below: answered compounds
CCCCC/C=C\CC(O)/C=C/c1cccc(CC(O)CCCCO)n1 (stereo not given) :: inactive
Cc1cc(NC2CCCCC2)nc(-n2nc(C)cc2C)n1 :: inactive
CN1CCc2cc(NC(=O)Nc3cccnc3)ccc21 :: inactive
CC12C(=O)OC(=O)C1(C)C1CCC2O1 (stereo not given) :: inactive
NC[C@@H]1O[C@H](C23CC4CC(CC(C4)C2)C3)Cc2c1ccc(O)c2O :: inactive

Consider the compound O=C(O)c1cc([N+](=O)[O-])ccc1NCCCc1ccccc1 and give its measured outcome.
inactive

Consider the compound O=C(Nc1cccc(C(=O)Nc2ccc(S(=O)(=O)O)c3cc(S(=O)(=O)O)cc(S(=O)(=O)O)c23)c1)Nc1cccc(C(=O)Nc2ccc(S(=O)(=O)O)c3cc(S(=O)(=O)O)cc(S(=O)(=O)O)c23)c1 and give its measured outcome.
inactive

Consider the compound CN1CCc2cccc3c2C1Cc1ccc(O)c(O)c1-3 (stereo not given) and give its measured outcome.
inactive

Consider the compound CN1CCc2cc(O)c(O)cc2C(c2ccccc2)C1 (stereo not given) and give its measured outcome.
inactive

Consider the compound COc1cccc(OC)c1OCCNCC1COc2ccccc2O1 (stereo not given) and give its measured outcome.
inactive

====

Assay: Quantitative high throughput screen for delayed death inhibitors of the malarial parasite plastid, 96 hour incubation (AID 488745); note: nearly all actives have a fitted effect of over 70% in size
Details: Plasmodium falciparum growth; series mostly up to 28.7 µM
Results filed as inconclusive are left out. Calls of active or inactive are those of the source. Calls come from the whole dose curve; as a rule, active = well fitted inhibition curve with a large enough effect; inconclusive = small, poorly fitted or top-dose-only effect, or effect the other way; inactive = no such curve, though single readings can be large or run the other way.
Reply using exactly one outcome from YES = active, NO = inactive

For this compound, state the assay outcome: COc1cc(OC)c(/C=C2/C(=O)Nc3ccccc32)c(OC)c1
NO

For this compound, state the assay outcome: CN=c1nc(-c2ccccc2)n(-c2ccccc2)s1
NO

For this compound, state the assay outcome: COC(=O)c1c(C)[nH]c(C)c1C(=O)c1ccccc1Cc1ccccc1
YES

For this compound, state the assay outcome: COc1ccccc1N1CCN(CCCCNS(=O)(=O)c2cccc3c(N(C)C)cccc23)CC1
NO

====

Test system: CP286
Assay: qHTS profiling for inhibitors of Plasmodium falciparum proliferation (AID 504749); note: nearly all actives have a fitted effect of over 60% in size
Conditions: P. falciparum in erythrocytes, SYBR Green DNA, 72 h; series mostly up to 28.7 µM
Inconclusive results are not listed. Active and inactive are the calls of the source. The call rests on the fitted dose curve; in most records, active means well fitted inhibition curve with a large enough effect; inconclusive means small, poorly fitted or top-dose-only effect; inactive means flat fitted curve, though single readings scatter.
Reply using exactly one outcome from label 1 (active), label 0 (inactive)

Reference set (10 entries):
O=C(O)COc1ccc(C(=O)c2cccs2)c(Cl)c1Cl :: label 0
Nc1cc(-c2ccncc2)c[nH]c1=O :: label 0
CC(=O)[C@]1(O)Cc2c(O)c3c(c(O)c2[C@@H](O[C@H]2C[C@H](N)[C@H](O)[C@H](C)O2)C1)C(=O)c1c(O)cccc1C3=O :: label 1
Nc1ccc(C(=O)O)c(O)c1 :: label 0
CCCCCCCCCCCCCCCCCC(=O)O :: label 0
c1ccc2sc(SSc3nc4ccccc4s3)nc2c1 :: label 0
COc1ccc(-c2cc(=S)ss2)cc1 :: label 0
[O-][n+]1ccccc1SSc1cccc[n+]1[O-] :: label 1
CN1[C@@H]2CC[C@H]1CC(OC(=O)C(CO)c1ccccc1)C2 (stereo partly specified) :: label 0
CN1CCN(c2cc3c(nn2)Oc2ccccc2N3C)CC1 :: label 0

For this compound, state the assay outcome: COc1cc(CNC(=O)CCCC/C=C/C(C)C)ccc1O
label 0

For this compound, state the assay outcome: CCCOC(=O)c1ccc(O)cc1
label 0

For this compound, state the assay outcome: COc1cc(/C=C/C(=O)N2CCN(CC(=O)N3CCCC3)CC2)cc(OC)c1OC
label 0

For this compound, state the assay outcome: CCCCCCCCCCCCCCCC(=O)OC(C)C
label 0

For this compound, state the assay outcome: CCCCCCOc1ccccc1C(N)=O
label 0

For this compound, state the assay outcome: Cc1ccc(O)c(-n2nc3ccccc3n2)c1
label 0

For this compound, state the assay outcome: Cc1ccc(C(=O)c2ccc(CC(=O)O)n2C)cc1
label 0

For this compound, state the assay outcome: C=CCCCCCCCCC(=O)O
label 0

For this compound, state the assay outcome: Oc1c(Br)cc(Br)c2cccnc12
label 0

====

Assay: qHTS for compounds that reverse cellular toxicity of Amyloid beta (A-beta) peptide in yeast: LOPAC Validation Assay (AID 720559);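 note: plate controls were DMSO for no effect and equimolar ferric chloride plus clioquinol rescue for full effect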
Settings: yeast expressing A-beta; rescue of growth toxicity; series mostly up to 46.1 µM
Calls of active or inactive are those of the source. Calls follow the shape of the dose curve; as a rule, active = well fitted curve in the direction sought with a large enough effect; inconclusive = small, poorly fitted or top-dose-only effect, or another doubt; inactive = no such curve, though single readings can be large or run the other way.
REPORTED PROPERTY: outcome

C[C@@H](NC(=O)/C(C#N)=C/c1ccc(O)c(O)c1)c1ccccc1 :: inactive
COc1ccccc1N1CCN(CCN(C(=O)c2ccc(I)cc2)c2ccccn2)CC1 :: inactive
CCNC(=O)[C@H]1O[C@@H](n2cnc3c(N)nc(NCCc4ccc(CCC(=O)O)cc4)nc32)[C@H](O)[C@@H]1O :: inactive
CNC(=O)[C@H]1O[C@@H](n2cnc3c(NCc4cccc(I)c4)ncnc32)[C@H](O)[C@@H]1O :: inactive
CN(C)c1nc(N)c(C(=O)N=C(N)N)nc1Cl :: inactive

Consider the compound CCCCC/C=C\CC(O)/C=C/c1cccc(CC(O)CCCCO)n1 (stereo not given) and give its measured outcome.
inactive

Consider the compound Fc1cccc(/C=N/N=C/c2cccc(F)c2)c1 and give its measured outcome.
inactive
